System: primary rat microglia
Assay: Inhibition of microglia activation (Aβ peptide stimulation, MTS reduction)
Type: cell-based
Details: Aβ-activated primary rat microglia, MTS reduction on day 7, compound added on day 5; read-out: IC50 in the Microglia Inhibition Test
pIC50: −log10 of the molar value.
// reported pIC50 per item

ITEM_SMILES: COC(=O)CCCCCOc1ccc2nc(-c3ccc(OC)cc3)n(CCCN(C)C(C)=O)c2c1
pIC50: 6.41

ITEM_SMILES: COCCCn1c(-c2ccccc2)nc2ccc(OCCCCCC(=O)OC)cc21
pIC50: 6.19
